target: HLA B*1503 (Homo sapiens, UniProt P01889, A329T/A93T/A95T/C349S/D201E/D98Y/E187L/E204Q/K202T/N87E/Q94N/R155S/R180L/S121R/S35A/V306I/V36M/Y140S/Y91S); experiment: biochemical
pIC50: −log10 of the molar value. Where a SMILES comes first, the peptide text is derived from it.
Reported pIC50 values follow for various compounds

{"columns": ["Compound", "pIC50"],
 "data": [
  ["CSCC[C@H](NC(=O)[C@H](Cc1ccc(O)cc1)NC(=O)[C@H](CC(N)=O)NC(=O)[C@H](Cc1ccc(O)cc1)NC(=O)[C@H](CO)NC(=O)[C@H](CCCCN)NC(=O)[C@@H](NC(=O)[C@H](CCCCN)NC(=O)[C@@H](N)CCCNC(=N)N)C(C)C)C(=O)O [3102.1285] (H-RKVKSYNYM-OH)", 8.59],
  ["CC(C)[C@H](NC(=O)[C@H](Cc1ccccc1)NC(=O)CNC(=O)[C@H](Cc1c[nH]cn1)NC(=O)[C@H](CC(N)=O)NC(=O)[C@H](CCC(N)=O)NC(=O)[C@@H](N)Cc1ccc(O)cc1)C(=O)N[C@@H](CO)C(=O)N[C@@H](Cc1ccccc1)C(=O)O [3102.1231] (H-YQNHGFVSF-OH)", 8.62],
  ["CC[C@H](C)[C@H](NC(=O)[C@@H](NC(=O)[C@H](CC(N)=O)NC(=O)[C@H](CCC(=O)O)NC(=O)[C@@H]1CCCN1C(=O)[C@H](CO)NC(=O)[C@H](C)NC(=O)[C@H](CCSC)NC(=O)[C@@H](N)Cc1ccccc1)C(C)C)C(=O)O [3102.1095] (H-FMASPENVI-OH)", 8.19],
  ["CC[C@H](C)[C@H](NC(=O)[C@H](CC(N)=O)NC(=O)[C@H](CC(N)=O)NC(=O)[C@H](Cc1ccccc1)NC(=O)[C@@H]1CCCN1C(=O)[C@H](CCCCN)NC(=O)[C@H](CCCNC(=N)N)NC(=O)[C@H](CCC(N)=O)NC(=O)[C@@H](N)Cc1ccccc1)C(=O)O [3102.1079] (H-FQRKPFNNI-OH)", 8.05]
]}

* * *

target: H-2 K^k (Mus musculus, UniProt P04223); format: binding
Entries and their measured Normalized average relative binding affinity (ARB), H-2 Kk follow.
Observation Type: Normalized average relative binding affinity (ARB), H-2 Kk

{"columns": ["Polymer Sequence", "Meas Value"],
 "data": [
  ["HXXXXXXXX [3064.0007]", 0.91],
  ["AXXXXXXXX [3064.0001]", 0.18],
  ["XNXXXXXXX [3064.0032]", 0.0053],
  ["LXXXXXXXX [3064.0010]", 0.49],
  ["RXXXXXXXX [3064.0015]", 0.11],
  ["XCXXXXXXX [3064.0022]", 0.010],
  ["XEXXXXXXX [3064.0024]", 1.0],
  ["XXXCXXXXX [3064.0062]", 0.37]
]}

* * *

molecular target: HLA B*1503 (Homo sapiens, UniProt P01889, A329T/A93T/A95T/C349S/D201E/D98Y/E187L/E204Q/K202T/N87E/Q94N/R155S/R180L/S121R/S35A/V306I/V36M/Y140S/Y91S); assay: biochemical
pIC50: −log10 of the molar value. Where a SMILES comes first, the peptide text is derived from it.
Each entry below carries its reported pIC50.
Observation Type: pIC50

{"columns": ["Molecule", "Observation Type", "Meas Value"],
 "data": [
  ["CC[C@H](C)[C@H](N)C(=O)N[C@@H](CC(C)C)C(=O)N[C@@H](Cc1c[nH]cn1)C(=O)N[C@H](C(=O)N[C@@H](CC(=O)O)C(=O)N[C@H](C(=O)N[C@@H](CC(C)C)C(=O)N[C@@H](CO)C(=O)N[C@@H](Cc1ccccc1)C(=O)O)[C@@H](C)CC)C(C)C [3102.1261] (H-ILHVDILSF-OH)", "pIC50", 7.62],
  ["CC[C@H](C)[C@H](N)C(=O)N[C@@H](CCC(=O)O)C(=O)N[C@H](C(=O)N[C@@H](CO)C(=O)N[C@@H](CO)C(=O)N[C@@H](CC(=O)O)C(=O)N[C@H](C(=O)N[C@@H](CO)C(=O)N[C@@H](Cc1ccccc1)C(=O)O)[C@@H](C)CC)C(C)C [3102.1201] (H-IEVSSDISF-OH)", "pIC50", 8.01],
  ["CC[C@H](C)[C@H](N)C(=O)N[C@@H](Cc1c[nH]cn1)C(=O)N[C@H](C(=O)N1CCC[C@H]1C(=O)N[C@@H](CCC(N)=O)C(=O)N[C@@H](CO)C(=O)N[C@@H](CCC(N)=O)C(=O)N[C@@H](CC(C)C)C(=O)N[C@@H](Cc1ccccc1)C(=O)O)[C@@H](C)CC [3102.1155] (H-IHIPQSQLF-OH)", "pIC50", 8.26]
]}
